B1: Twister Ribozyme (parent)
chain: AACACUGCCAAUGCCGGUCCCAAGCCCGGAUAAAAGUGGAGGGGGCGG

Variants of: B1
run-description: self-cleavage, relative activity (ratio to wild type); higher = more cleavage; co-transcriptional
endpoint: self-cleavage

residue-string: AACACUGCCAAUUCCGGUCCCAAGCCCGGAUAAAAGUGGAGGAGGCGG [G13U G43A]
endpoint: self-cleavage
observed-measurement: 0.143

residue-string: AACACUGCCAAUGCCGGUCCCAAGCCCGGAUAAAAGUGGAGGGGGUCG [C46U G47C]
endpoint: self-cleavage
observed-measurement: 1.6

residue-string: AAGACUGCCAAUGCCGUUCCCAAGCCCGGAUAAAAGUGGAGGGGGCGG [C3G G17U]
endpoint: self-cleavage
observed-measurement: 0.0757

residue-string: AACACUGCCAAUGCCUGUCCCAAGCCAGGAUAAAAGUGGAGGGGGCGG [G16U C27A]
endpoint: self-cleavage
observed-measurement: 0.908

residue-string: AACACUACCAAUGCCGGUCCCAAGCCCGGAUAAAAGUGGUGGGGGCGG [G7A A40U]
endpoint: self-cleavage
observed-measurement: 0.127

residue-string: AACACUGCCAAUGCCGGUCCCAAGCCCGGAUAAAAGUGGAGUGCGCGG [G42U G44C]
endpoint: self-cleavage
observed-measurement: 0.202

residue-string: AACACUGCCAGUGCCGGUCCCAAGCCCGGAUAAACGUGGAGGGGGCGG [A11G A35C]
endpoint: self-cleavage
observed-measurement: 0.903

residue-string: AACACUGCCAAUGCCGGUCCCAAGCCCGGAUAAAAGUGCAGGGGGAGG [G39C C46A]
endpoint: self-cleavage
observed-measurement: 0.13

residue-string: AACUCUGCCAUUGCCGGUCCCAAGCCCGGAUAAAAGUGGAGGGGGCGG [A4U A11U]
endpoint: self-cleavage
observed-measurement: 0.193

residue-string: AACACUGCCAAUGCCGGGCCCAAGCCCGGAUAAAAGUGGAGGGGGCGC [U18G G48C]
endpoint: self-cleavage
observed-measurement: 0.111

residue-string: AACACUGCCAAUGCCGGUCCCACGUCCGGAUAAAAGUGGAGGGGGCGG [A23C C25U]
endpoint: self-cleavage
observed-measurement: 0.116

residue-string: AACAGUGCCAAUGUCGGUCCCAAGCCCGGAUAAAAGUGGAGGGGGCGG [C5G C14U]
endpoint: self-cleavage
observed-measurement: 0.793

residue-string: AACACUGCCAAUGCCGGUCCCAAGCCAGGAUCAAAGUGGAGGGGGCGG [C27A A32C]
endpoint: self-cleavage
observed-measurement: 0.484

residue-string: AACACUGCCUAUGCCGGUCCCAAGCCCGGAUAAAAGUGCAGGGGGCGG [A10U G39C]
endpoint: self-cleavage
observed-measurement: 0.0863

residue-string: AACUCUGCCAAUGCCGGUCCCAAGGCCGGAUAAAAGUGGAGGGGGCGG [A4U C25G]
endpoint: self-cleavage
observed-measurement: 0.0782

residue-string: AACACUGCCAAUGCCGGUCCCAAGCCCGGAUAAAAGUGGAUAGGGCGG [G41U G42A]
endpoint: self-cleavage
observed-measurement: 0.136

residue-string: AACACUGCCAAUGCCGGUCCCAAGUCCGGAUAAAGGUGGAGGGGGCGG [C25U A35G]
endpoint: self-cleavage
observed-measurement: 0.46

residue-string: AAAACUGCCAAUCCCGGUCCCAAGCCCGGAUAAAAGUGGAGGGGGCGG [C3A G13C]
endpoint: self-cleavage
observed-measurement: 0.0651

residue-string: AACACUGCCAAUGCCGGUCCAAAGCCCGGAUAAAAGUGGAGUGGGCGG [C21A G42U]
endpoint: self-cleavage
observed-measurement: 0.0873

residue-string: AACACUGCCAAUGCCGGUCCCAAGCCCGGAUAAAAGUGGACGGGGAGG [G41C C46A]
endpoint: self-cleavage
observed-measurement: 0.254

residue-string: AACACUGCCAAUGCCGCUCCCAAGUCCGGAUAAAAGUGGAGGGGGCGG [G17C C25U]
endpoint: self-cleavage
observed-measurement: 0.0911

residue-string: AACACUGCCAAUGCCGGGCCCAAGCCCCGAUAAAAGUGGAGGGGGCGG [U18G G28C]
endpoint: self-cleavage
observed-measurement: 0.102
